Quick list: self-aminoacylation per entry.
Test system: biotinyl-Trp-oxazolone
test method notes: self-aminoacylation, catalytic enhancement (BWO) (fold over background); higher = more active; k-Seq, kA / k0A0; sequences stand for … in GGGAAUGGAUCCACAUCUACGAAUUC…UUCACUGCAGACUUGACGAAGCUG
Fewer inactive variants are shown than the library holds.

{"seq text": "AUACUUCAAACAAUCGGUCAG [Fam1A.1 aminoacylation ribozyme variant]", "self-aminoacylation": 1.88}
{"seq text": "AUUACCCUGCUCAUCCAGUGA [Fam2.1 aminoacylation ribozyme variant]", "self-aminoacylation": 7.43}
{"seq text": "AUUAACCUAGGUCAUCGGGUU [Fam2.2 aminoacylation ribozyme variant]", "self-aminoacylation": 6.05}
{"seq text": "AUUACCCGGGUCAUCGAGCGA [Fam2.1 aminoacylation ribozyme variant]", "self-aminoacylation": 1.55}
{"seq text": "AAGUUUGCUAAUAGUCACGAG [Fam3.1 aminoacylation ribozyme variant]", "self-aminoacylation": 1.34}
